- measuredOn: T1, LTKTG-EGFL (human LTK amino acids 63-420) (human, UniProt P29376 63-420)
- T1 construct: Fc-His6 tag removed by caspase 3; also called LTK (in BLI, SEC-MALLS and ITC)
- T1 sequence: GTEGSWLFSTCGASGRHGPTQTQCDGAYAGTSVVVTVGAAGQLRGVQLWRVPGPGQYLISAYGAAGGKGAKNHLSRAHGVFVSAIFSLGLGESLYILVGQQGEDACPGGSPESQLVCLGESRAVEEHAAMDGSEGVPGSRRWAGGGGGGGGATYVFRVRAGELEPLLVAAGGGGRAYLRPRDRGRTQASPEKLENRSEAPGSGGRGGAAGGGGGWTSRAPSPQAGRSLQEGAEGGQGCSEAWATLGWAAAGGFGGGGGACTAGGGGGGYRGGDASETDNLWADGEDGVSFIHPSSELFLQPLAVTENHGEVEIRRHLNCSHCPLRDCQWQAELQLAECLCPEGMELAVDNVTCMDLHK
- method: BLI, biotinylated ALKAL2 on streptavidin biosensors, LTKTG-EGFL in solution 300 nM to 11 nM, 2:1 binding model, component 1
- From the text: FIGS. 10A and 10B Representative response curves as measure by biolayer-interferometry (BLI) for the interaction of WT ALKAL1 and ALKAL1 mutants (containing charge-reversal mutations of residues involved in site 1) (FIG. 10A) and WT ALKAL2 and ALKAL2 mutants (FIG. 10B) with ALK_TG-EGFL and LTK_TG-EGFL. For WT ALKALs LTK curves were fitted with a 2:1 binding model (red) while for ALK a 1:1 model was used. […]
measurementName: Kd
Please report the result as a number followed by the unit.

Name the reported Kd value associated with the binder ALKAL2 (truncated, residues 78-152) (ligand, human, UniProt Q6UX46 78-152, looked up, range 78-152; Tag-free in ITC, SEC-MALLS, crystals and Ba/F3 assays; also called ALKAL2^WT; WT ALKAL2) PSPEQRVEIVPRDLRMKDKFLKHLTGPLYFSPKCSKHFHRLYHNTRDCTIPAYYKRCARLLTRLAVSPVCMEDKQ
100 nM
